In this section we review reported half-life values for a set of compounds.
Test: Pharmacokinetic testing in rats (IV or PO)
Format: in vivo
Conditions: male, Sprague Dawley, plasma; rat, IV, 2 mg/kg

See these solved cases before continuing.
The reported value for COc1ccc(Cc2cc([C@]34OC[C@](CO)(O3)[C@@H](O)[C@H](O)[C@H]4O)ccc2Cl)cc1 in terms of half-life is 1.58 h

The reported value for OC[C@@]12CO[C@@](c3ccc(F)c(Cc4ccc(Cl)cc4)c3)(O1)[C@H](O)[C@@H](O)[C@@H]2O [Example 12A] in terms of half-life is 3.9 h

# ---- query compound ----
The reported value for OC[C@@]12CO[C@@](c3ccc(Cl)c(Cc4ccc(OC5COC5)cc4)c3)(O1)[C@H](O)[C@@H](O)[C@@H]2O [Example 14A] in terms of half-life is 1.36 h

* * *

Test: Pharmacokinetic testing in rats (IV or PO)
Format: in vivo
Conditions: male, Sprague Dawley, plasma; rat, PO, 2 mg/kg, Tween 80/0.5% MC
measured.metric: half-life (h)
Express it in h; write the number only.

The reported value for CCOc1ccc(Cc2cc([C@]34OC[C@](CO)(O3)[C@@H](O)[C@H](O)[C@H]4O)ccc2Cl)cc1 in terms of half-life is 3.7

* * *

Test: PK satellite group of the in-vivo UGE assay (plasma by LC-MS/MS)
Conditions: male, Sprague Dawley; rat plasma, oral gavage, 0.1 mg/kg
measured.metric: AUC(0-t)

The reported value for CCOc1ccc(Cc2cc([C@]34OC[C@](CO)(O3)[C@@H](O)[C@H](O)[C@H]4O)ccc2Cl)cc1 in terms of AUC(0-t) is 188 ng·h/mL

* * *

Assay: PK satellite group of the in-vivo UGE assay (plasma by LC-MS/MS)
Settings: male, Sprague Dawley; rat plasma, oral gavage, 1 mg/kg
measured.metric: Cmax (ng/mL)
Express it in ng/mL; write the number only.

The reported value for CCOc1ccc(Cc2cc([C@]34OC[C@](CO)(O3)[C@@H](O)[C@H](O)[C@H]4O)ccc2Cl)cc1 in terms of Cmax is 372

* * *

Assay: Pharmacokinetic testing in rats (IV or PO)
Assay type: in vivo
Settings: male, Sprague Dawley, plasma; rat, PO, 2 mg/kg, Tween 80/0.5% MC
measured.metric: Cmax (ng/mL)
Express it in ng/mL; write the number only.

The reported value for CCOc1ccc(Cc2cc([C@]34OC[C@](CO)(O3)[C@@H](O)[C@H](O)[C@H]4O)ccc2Cl)cc1 in terms of Cmax is 772

* * *

Assay: PK satellite group of the in-vivo UGE assay (plasma by LC-MS/MS)
Conditions: male, Sprague Dawley; rat plasma, oral gavage, 30 mg/kg
measured.metric: AUC(0-t) (ng·h/mL)
Express it in ng·h/mL; write the number only.

The reported value for CCOc1ccc(Cc2cc([C@]34OC[C@](CO)(O3)[C@@H](O)[C@H](O)[C@H]4O)ccc2Cl)cc1 [Example 4A] in terms of AUC(0-t) is 10700

* * *

Assay: Pharmacokinetic testing in rats (IV or PO)
Format: in vivo
Conditions: male, Sprague Dawley, plasma; rat, PO, 10 mg/kg, PEG200/0.5% MC
measured.metric: Cmax (ng/mL)
Express it in ng/mL; write the number only.

The reported value for OC[C@@]12CO[C@@](c3ccc(Cl)c(Cc4ccc(OC5COC5)cc4)c3)(O1)[C@H](O)[C@@H](O)[C@@H]2O [Example 14A] in terms of Cmax is 551

Further cases:
The reported value for COc1ccc(Cc2cc([C@]34OC[C@](CO)(O3)[C@@H](O)[C@H](O)[C@H]4O)ccc2C)cc1 [Example 1A] in terms of Cmax is 1650

* * *

Biological target: hSGLT1 (Homo sapiens, UniProt P13866)
Sequence (P13866 whole entry): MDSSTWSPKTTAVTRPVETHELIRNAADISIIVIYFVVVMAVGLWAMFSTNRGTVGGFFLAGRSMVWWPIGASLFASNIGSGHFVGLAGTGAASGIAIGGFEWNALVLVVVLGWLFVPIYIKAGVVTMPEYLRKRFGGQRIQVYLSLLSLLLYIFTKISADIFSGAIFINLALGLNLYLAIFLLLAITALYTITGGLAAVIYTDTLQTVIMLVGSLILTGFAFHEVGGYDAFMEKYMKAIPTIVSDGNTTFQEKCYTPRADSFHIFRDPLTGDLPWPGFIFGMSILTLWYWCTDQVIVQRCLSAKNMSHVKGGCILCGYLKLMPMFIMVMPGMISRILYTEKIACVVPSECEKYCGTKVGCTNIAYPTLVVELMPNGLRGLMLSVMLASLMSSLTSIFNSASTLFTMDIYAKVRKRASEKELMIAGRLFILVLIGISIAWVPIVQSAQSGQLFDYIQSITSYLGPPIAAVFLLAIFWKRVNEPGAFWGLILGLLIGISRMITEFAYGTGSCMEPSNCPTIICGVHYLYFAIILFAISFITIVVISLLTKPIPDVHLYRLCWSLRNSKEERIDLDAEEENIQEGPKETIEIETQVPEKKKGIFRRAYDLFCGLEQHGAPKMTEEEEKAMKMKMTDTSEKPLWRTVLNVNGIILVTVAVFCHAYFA
Experiment: SGLT1 functional assay: hSGLT1 IC50 (selectivity counter-screen to the SGLT2 AMG uptake assay)
Details: individual runs (Run No.)
measured.metric: IC50

The reported value for CCOc1ccc(Cc2cc([C@]34OC[C@](CO)(O3)[C@@H](O)[C@H](O)[C@H]4O)ccc2C#N)cc1 in terms of IC50 is > 10 µM

The reported value for OC[C@@]12CO[C@@](c3ccc(F)c(Cc4ccc(Cl)cc4)c3)(O1)[C@@H](O)[C@@H](O)[C@@H]2O [Example 12B] in terms of IC50 is > 3.16 µM

The reported value for COc1ccc(Cc2cc([C@]34OC[C@](CO)(O3)[C@@H](O)[C@H](O)[C@@H]4O)ccc2Cl)cc1 in terms of IC50 is > 10 µM

The reported value for OC[C@@]12CO[C@@](c3ccc(F)c(Cc4ccc(OC5COC5)cc4)c3)(O1)[C@H](O)[C@@H](O)[C@@H]2O [Example 13A] in terms of IC50 is > 10 µM

The reported value for COc1ccc(Cc2cc([C@]34OC[C@](CO)(O3)[C@@H](O)[C@H](O)[C@@H]4O)ccc2F)cc1 in terms of IC50 is > 10 µM

The reported value for OC[C@@]12CO[C@@](c3ccc(F)c(Cc4ccc(OC5CCOC5)cc4)c3)(O1)[C@H](O)[C@@H](O)[C@@H]2O (stereo partly shown) [Example 11A] in terms of IC50 is > 10 µM

# ---- query molecule ----
The reported value for CCOc1ccc(Cc2cc([C@]34OC[C@](CO)(O3)[C@@H](O)[C@H](O)[C@@H]4O)ccc2F)cc1 [Example 10B] in terms of IC50 is > 10 µM

* * *

Assay: Pharmacokinetic testing in rats (IV or PO)
Type: in vivo
Settings: male, Sprague Dawley, plasma; rat, PO, 5 mg/kg, 20% PEG/24% HBCD
measured.metric: Cmax (ng/mL)
Express it in ng/mL; write the number only.

The reported value for CCOc1ccc(Cc2cc([C@]34OC[C@](CO)(O3)[C@@H](O)[C@H](O)[C@H]4O)ccc2Cl)cc1 [Example 4A] in terms of Cmax is 1190

* * *

Test: PK satellite group of the in-vivo UGE assay (plasma by LC-MS/MS)
Details: male, Sprague Dawley; rat plasma, oral gavage, 60 mg/kg
measured.metric: AUC(0-t)

The reported value for CCOc1ccc(Cc2cc([C@]34OC[C@](CO)(O3)[C@@H](O)[C@H](O)[C@H]4O)ccc2Cl)cc1 in terms of AUC(0-t) is 233 µg·h/mL
